These entries and their values trace back to patent US20170320919A1.

Target: human polyclonal IgG (Gammanorm) (human)
Test Protocol: SPR (Biacore), ligand amine-coupled to CM5 chip, 1 mg/ml IgG flowed; IgG binding signal left after 100 cycles of 100 mM NaOH, 10 min
Quantity Name: Retained capacity after 100 cycles (%)

D3(N10Q, N45A, N60Q)2-cys (designed binder) PKEEVTIKAQLIYADGKTQTAEFKGTFEEATAEAYRYADLLAKEAGKYTVDVADKGYTLQIKFAGKEKTPEEPKEEVTIKAQLIYADGKTQTAEFKGTFEEATAEAYRYADLLAKEAGKYTVDVADKGYTLQIKFAGKEKTPEEC    59
D3(N10Q, N45A, N60Q)4-cys (designed binder) PKEEVTIKAQLIYADGKTQTAEFKGTFEEATAEAYRYADLLAKEAGKYTVDVADKGYTLQIKFAGKEKTPEEPKEEVTIKAQLIYADGKTQTAEFKGTFEEATAEAYRYADLLAKEAGKYTVDVADKGYTLQIKFAGKEKTPEEPKEEVTIKAQLIYADGKTQTAEFKGTFEEATAEAYRYADLLAKEAGKYTVDVADKGYTLQIKFAGKEKTPEEPKEEVTIKAQLIYADGKTQTAEFKGTFEEATAEAYRYADLLAKEAGKYTVDVADKGYTLQIKFAGKEKTPEEC    54
D3(N10Q, N45A, N60Q)2 (designed binder) PKEEVTIKAQLIYADGKTQTAEFKGTFEEATAEAYRYADLLAKEAGKYTVDVADKGYTLQIKFAGKEKTPEEPKEEVTIKAQLIYADGKTQTAEFKGTFEEATAEAYRYADLLAKEAGKYTVDVADKGYTLQIKFAGKEKTPEE    59
